pKi tested on P2X purinoceptor 3 (Rattus norvegicus): recorded values
Sequence (P49654 whole entry): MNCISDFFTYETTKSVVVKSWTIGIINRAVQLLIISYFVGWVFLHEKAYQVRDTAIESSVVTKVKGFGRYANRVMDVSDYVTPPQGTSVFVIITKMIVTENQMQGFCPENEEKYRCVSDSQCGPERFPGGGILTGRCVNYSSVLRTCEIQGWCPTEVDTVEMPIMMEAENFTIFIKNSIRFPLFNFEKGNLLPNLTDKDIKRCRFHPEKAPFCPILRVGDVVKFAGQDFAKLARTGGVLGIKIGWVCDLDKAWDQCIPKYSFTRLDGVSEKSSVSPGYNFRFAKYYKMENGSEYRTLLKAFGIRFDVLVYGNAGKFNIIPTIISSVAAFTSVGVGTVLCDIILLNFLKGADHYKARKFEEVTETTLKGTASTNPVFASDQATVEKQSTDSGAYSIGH
By convention, pKi is the negative base-10 log of a molar concentration.

[
  {
    "molecularString": "O=C(Nc1ccc(C(=O)Nc2ccc(C(=O)Nc3ccc(S(=O)(=O)O)c4cc(S(=O)(=O)O)cc(S(=O)(=O)O)c34)cc2)cc1)Nc1ccc(C(=O)Nc2ccc(C(=O)Nc3ccc(S(=O)(=O)O)c4cc(S(=O)(=O)O)cc(S(=O)(=O)O)c34)cc2)cc1",
    "assayedTarget": "P2X purinoceptor 3 (Rattus norvegicus)",
    "resultType": "pKi",
    "measurement": 6.00
  }
]

Problem: Requested read-out: pKi. Entry: O=C(Nc1cccc(Nc2ccc(S(=O)(=O)O)c3cc(S(=O)(=O)O)cc(S(=O)(=O)O)c23)c1)Nc1cccc(Nc2ccc(S(=O)(=O)O)c3cc(S(=O)(=O)O)cc(S(=O)(=O)O)c23)c1
Result: 6.00
